Observed pIC50 for Acetylcholinesterase (AChE) (Electrophorus electricus, UniProt O42275), reported per entry below.
Please treat pIC50 as minus the base-10 logarithm of the molar concentration.

Please review the following examples before continuing.
COc1ccc(C(=O)C2=C(c3ccc(OC)c(OC)c3OC)CCC2)c(OC)c1OC ... 6.99
COc1ccc(C2=C(/C(=N/NC(C)=O)c3ccc(OC)c(OC)c3OC)CCC2)c(OC)c1OC ... 6.69
COc1c(Br)c(Br)c(CC2CCCC2c2c(Br)c(Br)c(OC)c(OC)c2OC)c(OC)c1OC (stereo not shown) ... 7.18

Exercise: Hi! What's the reported pIC50 for COc1c(Br)cc(C2CCCC2Cc2c(Br)c(Br)c(OC)c(OC)c2OC)c(OC)c1OC (stereo not shown) on Acetylcholinesterase (AChE) (Electrophorus electricus, UniProt O42275)?
Solution: 6.91

###

Entries annotated with measured IC50
# assayed.target: Butyrylcholinesterase (BChE) (Equus caballus, UniProt P81908)
# Construct: Butyrylcholinesterase from equine serum (CAS No.: 9001–08-5)
# Sequence (P81908 whole entry): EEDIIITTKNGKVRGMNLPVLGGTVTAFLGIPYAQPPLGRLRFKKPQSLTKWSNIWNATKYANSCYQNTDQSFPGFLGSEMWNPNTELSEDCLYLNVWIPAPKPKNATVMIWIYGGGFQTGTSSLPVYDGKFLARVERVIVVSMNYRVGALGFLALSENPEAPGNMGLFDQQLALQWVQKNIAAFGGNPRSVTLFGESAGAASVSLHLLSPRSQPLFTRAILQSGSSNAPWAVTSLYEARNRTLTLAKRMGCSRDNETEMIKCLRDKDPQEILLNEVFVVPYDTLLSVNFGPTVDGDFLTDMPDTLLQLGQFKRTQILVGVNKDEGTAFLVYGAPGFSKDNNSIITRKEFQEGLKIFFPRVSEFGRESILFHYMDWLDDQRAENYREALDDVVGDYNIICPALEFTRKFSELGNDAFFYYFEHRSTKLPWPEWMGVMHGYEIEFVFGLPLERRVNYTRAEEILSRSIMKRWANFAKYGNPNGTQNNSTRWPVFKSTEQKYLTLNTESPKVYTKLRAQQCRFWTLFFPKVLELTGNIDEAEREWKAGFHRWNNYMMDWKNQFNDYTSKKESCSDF
# procedure.summary: biochemical
# Experimental: The Ellman approach was employed to examine the impact of synthetic chemicals on the ability to inhibit AChE and BChE activity. AChI/BChI and DTNB were used to quantify the AChE/BChE activity. […] For different concentrations of the sample solution, 100 μL of buffer (1 M, Tris/HCl, pH 8.0) were used to dissolve 10 μL of the sample solution. […] The incubation was followed by the addition of DTNB (50 μL, 0.5 mM). […] Then, the activities of AChE/BChE were evaluated.
The figure you give is taken to be in nM; do not add the unit.

Please review the following examples before continuing.
COc1ccc(C2=C(/C(=N/NC(C)=O)c3ccc(OC)c(OC)c3OC)CCC2)c(OC)c1OC ... 135
COc1c(Br)cc(C(=O)C(Br)CCC(Br)C(=O)c2cc(Br)c(OC)c(OC)c2O)c(O)c1OC (stereo not shown) ... 450
COc1ccc(CC2CCCC2c2ccc(OC)c(OC)c2OC)c(OC)c1OC (stereo not shown) ... 155
COc1ccc(C(=O)C2=C(c3ccc(OC)c(OC)c3OC)CCC2)c(OC)c1OC ... 414
COc1ccc(C(=O)CCCCC(=O)c2ccc(OC)c(OC)c2OC)c(O)c1OC ... 646
COc1ccc(C(=O)CCCCC(=O)c2ccc(OC)c(OC)c2OC)c(OC)c1OC ... 225
COc1ccc(C(=O)CCCCC(=O)c2ccc(OC)c(OC)c2O)c(O)c1OC ... 222
COc1c(Br)cc(C2CCCC2Cc2c(Br)c(Br)c(OC)c(OC)c2OC)c(OC)c1OC (stereo not shown) ... 217

Exercise: Consider the compound shown here: COc1ccc(C(=O)C2CCC=C2c2ccc(OC)c(OC)c2OC)c(OC)c1OC (stereo not shown) What is its recorded IC50?
Solution: 187

Exercise: Would you kindly repeat that for COc1c(Br)c(Br)c(CC2CCCC2c2c(Br)c(Br)c(OC)c(OC)c2OC)c(OC)c1OC (stereo not shown) ?
Solution: 92.7

###

# assayed.target: α-Glucosidase (Saccharomyces cerevisiae)
# Sequence (P53341 whole entry): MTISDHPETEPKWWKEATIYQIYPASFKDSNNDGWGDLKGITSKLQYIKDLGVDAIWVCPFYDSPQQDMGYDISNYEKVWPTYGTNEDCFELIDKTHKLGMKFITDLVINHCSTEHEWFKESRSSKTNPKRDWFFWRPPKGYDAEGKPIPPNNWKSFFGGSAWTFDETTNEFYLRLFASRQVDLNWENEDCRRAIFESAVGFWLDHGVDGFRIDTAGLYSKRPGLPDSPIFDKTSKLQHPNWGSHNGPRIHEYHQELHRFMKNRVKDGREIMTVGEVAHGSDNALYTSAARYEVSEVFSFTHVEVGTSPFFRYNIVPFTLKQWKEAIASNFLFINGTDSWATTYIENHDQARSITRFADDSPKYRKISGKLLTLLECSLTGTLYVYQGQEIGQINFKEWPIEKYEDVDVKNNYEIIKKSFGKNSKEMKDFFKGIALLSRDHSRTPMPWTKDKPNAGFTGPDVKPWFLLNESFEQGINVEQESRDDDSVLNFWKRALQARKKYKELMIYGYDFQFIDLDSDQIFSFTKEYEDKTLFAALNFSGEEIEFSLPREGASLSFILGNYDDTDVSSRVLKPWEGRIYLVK
# procedure.summary: α-glucosidase inhibition with p-NPG substrate (Tao et al. method)
# Assay type: biochemical
property.measured: pKi
Please treat pKi as minus the base-10 logarithm of the molar concentration.

Please review the following examples before continuing.
COc1c(Br)c(Br)c(CC2CCCC2c2c(Br)c(Br)c(OC)c(OC)c2OC)c(OC)c1OC (stereo not shown) [Compound 12] ... 7.56
COc1ccc(C(=O)CCCCC(=O)c2ccc(OC)c(OC)c2O)c(O)c1OC [Compound 8] ... 7.41
COc1c(Br)cc(C2CCCC2Cc2c(Br)c(Br)c(OC)c(OC)c2OC)c(OC)c1OC (stereo not shown) [Compound 13] ... 7.45
COc1ccc(C(=O)CCCCC(=O)c2ccc(OC)c(OC)c2OC)c(OC)c1OC [Compound 6] ... 7.54
COc1ccc(C(=O)C2CCC=C2c2ccc(OC)c(OC)c2OC)c(OC)c1OC (stereo not shown) [Compound 5] ... 7.35
COc1ccc(CC2CCCC2c2ccc(OC)c(OC)c2OC)c(OC)c1OC (stereo not shown) [Compound 11] ... 7.42
COc1ccc(C2=C(/C(=N/NC(C)=O)c3ccc(OC)c(OC)c3OC)CCC2)c(OC)c1OC [Compound 10] ... 7.51
COc1c(Br)cc(C(=O)C(Br)CCC(Br)C(=O)c2cc(Br)c(OC)c(OC)c2O)c(O)c1OC (stereo not shown) [Compound 9] ... 7.59
COc1ccc(C(=O)C2=C(c3ccc(OC)c(OC)c3OC)CCC2)c(OC)c1OC [Compound 4] ... 7.31

Exercise: Consider the molecule shown here: COc1ccc(C(=O)CCCCC(=O)c2ccc(OC)c(OC)c2OC)c(O)c1OC [Compound 7] What is its recorded pKi?
Solution: 7.33
